B1: PPEF2 (parent)
chain: DHSGFISLDEFRQTWKLFSSHMNI

Variants of: B1
Test: protein stability index of a GFP-peptide fusion (GPS, HEK-293T) (PSI 1-6); higher = more stable;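 also: lentivirally expressed fusions sorted by FACS into six bins by GFP to DsRed ratio, PSI derived from sequencing read proportions per bin multiplied by bin number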
Conditions: c terminus: a fixed tail appended
# protein stability index values compiled below
Number only, no unit.

>  <changes>
H21G

>  <quantity>
protein stability index

>  <result.number>
2.22

$$$$
>  <changes>
R12I

>  <quantity>
protein stability index

>  <result.number>
2.73

$$$$
>  <changes>
S7A

>  <quantity>
protein stability index

>  <result.number>
2.06

$$$$

Ask: Supply measured protein stability index of "Q13V" in your reply.
Reply: 2.95

Ask: Supply measured protein stability index of "I6W" in your reply.
Reply: 1.82

Ask: Supply measured protein stability index of "Q13M" in your reply.
Reply: 3.2

Ask: Supply measured protein stability index of "H2E" in your reply.
Reply: 1.44

Ask: Supply measured protein stability index of "K16V" in your reply.
Reply: 2.6

Ask: Supply measured protein stability index of "N23M" in your reply.
Reply: 2.57

Ask: Supply measured protein stability index of "W15L" in your reply.
Reply: 1.88

Ask: Supply measured protein stability index of "I24M" in your reply.
Reply: 2.04
